- TESTED ON: Tyrosine-protein kinase ABL1 (Homo sapiens); further: in the data inactive means no Kd found up to 30 µM
- Sequence (P00519 whole entry): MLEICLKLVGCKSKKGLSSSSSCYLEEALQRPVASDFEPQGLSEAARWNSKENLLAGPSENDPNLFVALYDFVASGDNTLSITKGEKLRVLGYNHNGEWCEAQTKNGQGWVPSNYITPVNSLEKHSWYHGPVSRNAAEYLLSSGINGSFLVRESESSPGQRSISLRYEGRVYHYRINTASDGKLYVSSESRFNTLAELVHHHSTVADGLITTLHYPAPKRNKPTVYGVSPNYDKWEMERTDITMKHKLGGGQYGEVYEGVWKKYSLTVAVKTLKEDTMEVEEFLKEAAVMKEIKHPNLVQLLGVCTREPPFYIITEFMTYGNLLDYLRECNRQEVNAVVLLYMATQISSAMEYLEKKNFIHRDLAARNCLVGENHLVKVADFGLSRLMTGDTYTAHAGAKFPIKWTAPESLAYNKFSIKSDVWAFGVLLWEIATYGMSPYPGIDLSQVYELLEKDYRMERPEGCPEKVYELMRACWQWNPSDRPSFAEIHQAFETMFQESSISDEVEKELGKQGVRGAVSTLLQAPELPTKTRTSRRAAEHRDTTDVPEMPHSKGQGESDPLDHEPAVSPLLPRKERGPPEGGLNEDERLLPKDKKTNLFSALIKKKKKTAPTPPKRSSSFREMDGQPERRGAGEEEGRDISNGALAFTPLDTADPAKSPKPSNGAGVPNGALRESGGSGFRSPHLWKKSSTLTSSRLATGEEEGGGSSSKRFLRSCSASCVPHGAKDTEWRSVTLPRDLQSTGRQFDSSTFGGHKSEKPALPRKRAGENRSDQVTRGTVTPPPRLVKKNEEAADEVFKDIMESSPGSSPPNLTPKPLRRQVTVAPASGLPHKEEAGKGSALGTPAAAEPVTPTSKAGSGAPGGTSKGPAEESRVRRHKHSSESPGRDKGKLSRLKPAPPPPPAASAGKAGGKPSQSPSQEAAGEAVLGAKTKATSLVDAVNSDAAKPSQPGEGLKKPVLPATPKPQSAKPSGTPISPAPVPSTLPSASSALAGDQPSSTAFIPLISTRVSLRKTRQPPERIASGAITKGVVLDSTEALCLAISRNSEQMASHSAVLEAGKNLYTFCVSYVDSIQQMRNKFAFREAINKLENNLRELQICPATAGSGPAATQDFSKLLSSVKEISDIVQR
Activity calls are given as the source filed them.

- STRUCTURE STRING: "Cc1c(F)cc(C(=O)NC2CC2)cc1-c1ccc(C(=O)NCC(C)(C)C)cn1"
  TESTED ON: "Tyrosine-protein kinase ABL1 (Homo sapiens)"
  Kd: "> 30 µM (inactive)"
- STRUCTURE STRING: "O=C1NC(=O)/C(=C/c2ccc3nccc(-c4ccncc4)c3c2)S1"
  TESTED ON: "Tyrosine-protein kinase ABL1 (Homo sapiens)"
  Kd: "> 30 µM (inactive)"
- STRUCTURE STRING: "C=CC(=O)N1CCC(Oc2cc3c(Nc4ccc(Cl)c(Cl)c4F)ncnc3cc2OC)CC1"
  TESTED ON: "Tyrosine-protein kinase ABL1 (Homo sapiens)"
  Kd: "> 30 µM (inactive)"
- STRUCTURE STRING: "COCCNCc1ccc(-c2cc3nccc(Oc4ccc(NC(=S)NC(=O)Cc5ccc(F)cc5)cc4F)c3s2)nc1"
  TESTED ON: "Tyrosine-protein kinase ABL1 (Homo sapiens)"
  Kd: "0.241 µM (active)"
- STRUCTURE STRING: "CC[C@H](Nc1ncnc2[nH]cnc12)c1nc2cccc(F)c2c(=O)n1-c1ccccc1"
  TESTED ON: "Tyrosine-protein kinase ABL1 (Homo sapiens)"
  Kd: "> 30 µM (inactive)"
- STRUCTURE STRING: "Cc1ccc(S(=O)(=O)Nc2nc3ccccc3nc2Nc2ccc3nsnc3c2)cc1"
  TESTED ON: "Tyrosine-protein kinase ABL1 (Homo sapiens)"
  Kd: "> 30 µM (inactive)"
- STRUCTURE STRING: "CN(C)C(=O)c1cc2cnc(Nc3ccc(N4CCNCC4)cn3)nc2n1C1CCCC1"
  TESTED ON: "Tyrosine-protein kinase ABL1 (Homo sapiens)"
  Kd: "> 30 µM (inactive)"
- STRUCTURE STRING: "Cn1cc(-c2ccc(F)c(C(F)(F)F)c2)nc1C1CCN(c2ncnc3[nH]ncc23)CC1"
  TESTED ON: "Tyrosine-protein kinase ABL1 (Homo sapiens)"
  Kd: "> 30 µM (inactive)"
